- assay_system: RORγ/γt (Mus musculus, UniProt P51450, T352K)
- Sequence (P51450 with tags, fused parts or gaps T352K): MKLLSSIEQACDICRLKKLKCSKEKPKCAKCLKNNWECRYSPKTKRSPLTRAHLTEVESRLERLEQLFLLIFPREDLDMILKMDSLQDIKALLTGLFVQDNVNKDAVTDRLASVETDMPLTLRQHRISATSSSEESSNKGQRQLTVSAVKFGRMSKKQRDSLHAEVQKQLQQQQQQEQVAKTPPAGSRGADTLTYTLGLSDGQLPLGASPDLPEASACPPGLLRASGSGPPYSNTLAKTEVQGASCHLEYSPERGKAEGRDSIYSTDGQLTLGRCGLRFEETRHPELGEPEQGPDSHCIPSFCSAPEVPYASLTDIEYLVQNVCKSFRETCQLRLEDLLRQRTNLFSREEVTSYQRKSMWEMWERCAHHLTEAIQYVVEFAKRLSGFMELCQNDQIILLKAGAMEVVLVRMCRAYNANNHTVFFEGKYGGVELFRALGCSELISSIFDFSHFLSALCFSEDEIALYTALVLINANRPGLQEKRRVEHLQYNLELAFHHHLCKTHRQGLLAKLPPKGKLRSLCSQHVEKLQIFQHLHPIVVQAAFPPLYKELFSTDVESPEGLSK
- assay_method_text: RORγ/γt-luc reporter S2 cell assay / HTS (firefly luciferase)
Below: a set of entries, each annotated with reported AC50.
Please state the figure in nM; there is no need to write the unit.

Solved cases (2 shown):
{"compound_structure_string": "CCOC(=O)[C@@H]1[C@H]2COc3ccccc3[C@H]2N2C(=O)N(c3ccc(Cl)cc3)C(=O)[C@]12C", "AC50 [nM]": 7.1}
{"compound_structure_string": "CCOC(=O)[C@@H]1[C@H]2COc3ccccc3[C@H]2N2C(=O)N(c3ccccc3)C(=O)[C@]12C", "AC50 [nM]": 794}

Now for the compound whose AC50 we want.
So, `CCOC(=O)[C@@H]1[C@H]2COc3cc(OC)ccc3[C@H]2N2C(=O)N(c3ccc(C(F)(F)F)cc3)C(=O)[C@@]12C` ? Its AC50 was 4470

* * *

- Test system: mouse Th17 cell differentiation
- assay_method_text: Cytokine induced mouse Th17 cell differentiation (IL17a production, FACS)
- Format: cell-based
- experimental_context: 20 μM; DMSO 17% Th17; compound added Day 1, analyzed Day 4
Below: a set of entries, each annotated with reported percentage of mouse Th17 cells (IL17a production).
Please state the figure in %; there is no need to write the unit.

Solved cases (5 shown):
{"compound": "CC(=O)[C@@]1(O)CC[C@H]2[C@H]3C[C@@H](C)C4=CC(=O)C=C[C@]4(C)[C@@]3(F)[C@@H](O)C[C@]21C", "measured_result": 2.6}
{"compound": "C=C1NN=C(c2ccccc2Br)N1N=Cc1ccc(N(CC)CC)cc1", "measured_result": 10.2}
{"compound": "Cc1nn(-c2cc(C)c3ccccc3n2)c2c1C1C(C2)C1(C)C (stereo not shown)", "measured_result": 8.3}
{"compound": "C=C(NC(=O)c1ccccc1)N1CCN(c2ncc3c(=O)c(C(=O)O)cn(CC)c3n2)CC1", "measured_result": 8.9}
{"compound": "CO[C@H]1[C@@H](O)CC(OC2[C@@H](O)CC(OC3[C@@H](O)C[C@H](OC4CC[C@@]5(C)C(CCC6C5CC(O)[C@]5(C)[C@H](C7=CC(=O)OC7)CCC65O)C4)O[C@@H]3C)O[C@@H]2C)O[C@@H]1C (stereo partly shown)", "measured_result": 1.2}

So, `CCOc1ccc(-c2cc(CCCC(=O)NCc3cccnc3)no2)cc1` ? Its percentage of mouse Th17 cells (IL17a production) was 10.7

So, `COc1ccc(OC)c(NC(=S)N(CCc2c(C)[nH]c3ccccc23)Cc2cccs2)c1` ? Its percentage of mouse Th17 cells (IL17a production) was 3.1

So, `Cc1cc(C)n(-c2nc(SCC(=O)O)c3c4c(sc3n2)CCCC4)n1` ? Its percentage of mouse Th17 cells (IL17a production) was 10.2

So, `O=C(/C=C/c1ccc(S(=O)(=O)N2CCOCC2)cc1)NC(=S)Nc1ccc(N2CCOCC2)cc1` ? Its percentage of mouse Th17 cells (IL17a production) was 4.8

* * *

- assay_system: RORγ/γt (Mus musculus, UniProt P51450, T352K)
- assay_method_text: RORγ/γt-luc reporter S2 cell assay / HTS (firefly luciferase)
readout_kind: AC50 (µM)
Please state the figure in µM; there is no need to write the unit.

{"compound_structure_string": "CCOC(=O)[C@@H]1[C@H]2COc3cc(OC)ccc3[C@@H]2N2C(=O)N(c3cccc(F)c3)C(=O)[C@@]12C", "assay_system": "RORγ/γt (Mus musculus, UniProt P51450, T352K)", "units_symbol": "µM", "measured_result": 10}
{"compound_structure_string": "CCOC(=O)[C@@H]1[C@H]2COc3ccc(Br)cc3[C@H]2N2C(=O)N(c3ccc(Br)cc3)C(=O)[C@]12C", "assay_system": "RORγ/γt (Mus musculus, UniProt P51450, T352K)", "units_symbol": "µM", "measured_result": 1.12}
{"compound_structure_string": "CCOC(=O)[C@@H]1[C@H]2COc3cc(OC)ccc3[C@@H]2N2C(=O)N(c3cccc(C)c3)C(=O)[C@@]12C", "assay_system": "RORγ/γt (Mus musculus, UniProt P51450, T352K)", "units_symbol": "µM", "measured_result": 12.6}

So, `CCOC(=O)[C@@H]1[C@H]2COc3ccc(Br)cc3[C@H]2N2C(=O)N(c3cccc(Cl)c3)C(=O)[C@]12C` ? Its AC50 was 8.91

So, `CCOC(=O)[C@@H]1[C@H]2COc3ccccc3[C@@H]2N2C(=O)N(c3ccc(OC)cc3)C(=O)[C@@]12C` ? Its AC50 was 14.1

So, `CCOC(=O)[C@@H]1[C@H]2COc3ccc(Br)cc3[C@@H]2N2C(=O)N(c3cccc(F)c3)C(=O)[C@@]12C` ? Its AC50 was 17.8

* * *

- assay_system: RORγ/γt (Mus musculus, UniProt P51450, T352K)
- assay_method_text: RORγ/γt-luc reporter S2 cell assay / HTS (firefly luciferase)
- experimental_context: RORγ/γt reporter, S2 cells; concentration for 80% inhibition
If the reported 80% Inhib. @ equals or exceeds 10 µM, assign Fulfilled. If not, assign Not fulfilled.

# example entries with known answers
{"compound": "O=C(CCCOc1ccccc1)Nc1nc2ccccc2[nH]1", "category_label": "Fulfilled"}
{"compound": "CO[C@H]1[C@@H](O)CC(OC2[C@@H](O)CC(OC3[C@@H](O)C[C@H](OC4CC[C@@]5(C)C(CCC6C5CC(O)[C@]5(C)[C@H](C7=CC(=O)OC7)CCC65O)C4)O[C@@H]3C)O[C@@H]2C)O[C@@H]1C (stereo partly drawn)", "category_label": "Not fulfilled"}
{"compound": "CN1CCN(C(=O)CCN2C(=O)/C(=C\\c3ccccc3F)SC2=S)CC1", "category_label": "Fulfilled"}
{"compound": "COc1ccc(C(=O)/C=C/c2ccc(OC)cc2OC)c(O)c1", "category_label": "Not fulfilled"}
{"compound": "CC(C)[C@@H](NC(=O)C1CCN(C(=O)[C@@H]2CCCN2C(=O)OC(C)(C)C)CC1)C(=O)NCc1ccc(F)cc1", "category_label": "Fulfilled"}

Q: Quick check, 80% Inhib. @ >= 10 µM? `C=C1NN=C(c2cc(-c3cccc(OCC)c3)nc3ccccc23)N1CC`
A: Not fulfilled

Q: Quick check, 80% Inhib. @ >= 10 µM? `O=C(/C=C/c1ccc(S(=O)(=O)N2CCOCC2)cc1)NC(=S)Nc1ccc(N2CCOCC2)cc1`
A: Not fulfilled

Q: Quick check, 80% Inhib. @ >= 10 µM? `Cc1ccc(Sc2cncc3sc(C(N)=O)cc23)cc1`
A: Not fulfilled

Q: Quick check, 80% Inhib. @ >= 10 µM? `C=C1NN=C(c2ccccc2Br)N1N=Cc1ccc(N(CC)CC)cc1`
A: Not fulfilled

Q: Quick check, 80% Inhib. @ >= 10 µM? `COc1ccccc1CNC(=O)[C@@H](NC(=O)C1CCN(C(=O)[C@@H]2CCCN2C(=O)OC(C)(C)C)CC1)C(C)C`
A: Fulfilled

Q: Quick check, 80% Inhib. @ >= 10 µM? `O=C(NC(=S)Nc1nc(-c2ccccc2)cs1)c1cccnc1`
A: Fulfilled

Q: Quick check, 80% Inhib. @ >= 10 µM? `O=C(CCCN1C(=O)/C(=C/c2ccccc2Cl)SC1=S)Nc1cccnc1`
A: Not fulfilled

Q: Quick check, 80% Inhib. @ >= 10 µM? CCOC(=O)c1sc(NC(=O)c2cc3c(s2)CCC(C)C3)nc1C (stereo not drawn)
A: Not fulfilled

Q: Quick check, 80% Inhib. @ >= 10 µM? `COc1ccc(OC)c(NC(=S)N(CCc2c(C)[nH]c3ccccc23)Cc2cccs2)c1`
A: Fulfilled

* * *

Below: a set of entries, each annotated with reported log10 AC50.
- assay_system: RORγ/γt (Mus musculus, UniProt P51450, T352K)
- assay_method_text: RORγ/γt-luc reporter S2 cell assay / HTS (firefly luciferase)
Heads up: the numbers are on a log10 scale; they represent AC50 in µM.

{"compound_structure_string": "CCOC(=O)[C@@H]1[C@H]2COc3ccc(Br)cc3[C@@H]2N2C(=O)N(c3ccccc3)C(=O)[C@@]12C", "readout_kind": "log10 AC50", "measured_result": 1.00}
{"compound_structure_string": "CCOC(=O)[C@@H]1[C@H]2COc3ccc(Br)cc3[C@@H]2N2C(=O)N(c3ccc(F)cc3)C(=O)[C@]12C", "readout_kind": "log10 AC50", "measured_result": -0.05}
{"compound_structure_string": "CCOC(=O)[C@@H]1[C@H]2COc3ccccc3[C@@H]2N2C(=O)N(c3ccc(C)cc3)C(=O)[C@]12C", "readout_kind": "log10 AC50", "measured_result": 0.60}
{"compound_structure_string": "CCOC(=O)[C@@H]1[C@H]2COc3ccccc3[C@@H]2N2C(=O)N(c3ccccc3)C(=O)[C@@]12C", "readout_kind": "log10 AC50", "measured_result": 1.10}
{"compound_structure_string": "CCOC(=O)[C@@H]1[C@H]2COc3ccccc3[C@@H]2N2C(=O)N(c3cccc(C)c3)C(=O)[C@]12C", "readout_kind": "log10 AC50", "measured_result": -0.05}

So, `CCOC(=O)[C@H]1[C@H]2COc3cc(OC)ccc3[C@@H]2N2C(=O)N(c3cccc(Cl)c3)C(=O)[C@@]12C` ? Its log10 AC50 was 0.80
